Data provenance is patent US11028072B2.

As a worked illustration, we turn to Ki data collected for Human dihydrofolate reductase (hDHFR) (Homo sapiens).
MEASURED_QUANTITY: Ki (nM)

>>> recorded_measurement("CCc1nc(N)nc(N)c1OCc1csc(-c2ccc(OCC(=O)O)cc2)n1")
357
>>> recorded_measurement("CCc1nc(N)nc(N)c1OCc1cc(-c2ccc(Br)cc2)no1")
1350
>>> recorded_measurement("CCc1nc(N)nc(N)c1OCc1cc(-c2ccc(Cl)cc2)no1")
1170
>>> recorded_measurement("CCc1nc(N)nc(N)c1OCCCc1cn(-c2ccc(C(=O)O)cc2)nn1")
44.8

----------
- PROTOCOL: in vitro
- CONDITION_CONTEXT: African green monkey
MEASURED_QUANTITY: IC50 (µM)

>>> recorded_measurement("CCc1nc(N)nc(N)c1OCCc1csc(-c2ccccc2)n1 [Compound 76]")
1.33
>>> recorded_measurement("CCc1nc(N)nc(N)c1OCCCc1cc(-c2cccc(C(F)(F)F)c2)no1 [Compound 46]")
10.5
>>> recorded_measurement("CCc1nc(N)nc(N)c1OCc1coc(-c2cccc(C)c2)n1 [Compound 51]")
75.9
>>> recorded_measurement("CCc1nc(N)nc(N)c1OCc1cc(-c2cccc(C(F)(F)F)c2)no1 [Compound 37]")
37.1
>>> recorded_measurement("CCc1nc(N)nc(N)c1OCCCc1cc(-c2cccc(C#N)c2)no1 [Compound 47]")
0.56

----------
Ki values by entry
- TEST_TARGET: quadruple mutant N51I + C59R + S108N + I164L (QM) pfDHFR (Plasmodium falciparum, UniProt P13922, I164L/N51I)
- Sequence (P13922 whole entry N51I/I164L): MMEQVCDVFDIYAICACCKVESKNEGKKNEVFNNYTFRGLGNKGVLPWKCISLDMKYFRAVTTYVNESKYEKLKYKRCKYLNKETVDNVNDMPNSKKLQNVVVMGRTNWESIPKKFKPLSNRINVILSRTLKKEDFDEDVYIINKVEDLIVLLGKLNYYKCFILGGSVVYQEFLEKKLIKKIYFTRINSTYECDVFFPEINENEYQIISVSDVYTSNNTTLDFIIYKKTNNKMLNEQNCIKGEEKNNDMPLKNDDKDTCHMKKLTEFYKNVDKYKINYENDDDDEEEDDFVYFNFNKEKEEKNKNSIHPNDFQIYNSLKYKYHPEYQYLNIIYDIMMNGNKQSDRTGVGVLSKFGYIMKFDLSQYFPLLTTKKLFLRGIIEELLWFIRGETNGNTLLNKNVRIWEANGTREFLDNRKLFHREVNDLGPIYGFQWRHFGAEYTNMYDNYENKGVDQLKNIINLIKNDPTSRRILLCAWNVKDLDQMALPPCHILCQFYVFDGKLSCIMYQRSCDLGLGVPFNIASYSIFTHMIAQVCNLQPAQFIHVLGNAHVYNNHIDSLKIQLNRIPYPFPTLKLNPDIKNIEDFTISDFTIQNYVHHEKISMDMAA
- PROTOCOL: Inhibition of quadruple mutant pfDHFR (Ki)
- Experimental: The synthesized 2,4-diamino-6-ethylpyrimdine derivatives as the hydrochloride salts were tested for the activities against Plasmodium falciparum (P. falciparum) according to the standard methods. These include the inhibition of dihydrofolate reductase (DHFR) enzymes of P. falciparum including, wild type (WT) and quadruple mutants (N51IC59RS108NI164L) (QM). The inhibition was expressed as inhibition constants (Ki) in nano molar (nM).
MEASURED_QUANTITY: Ki (nM)

>>> recorded_measurement("CCc1nc(N)nc(N)c1OCc1csc(-c2cccc(C)c2)n1")
37.7
>>> recorded_measurement("CCc1nc(N)nc(N)c1OCc1coc(-c2cccc(C)c2)n1")
48
>>> recorded_measurement("CCc1nc(N)nc(N)c1OCCCc1cc(-c2ccc(Cl)cc2)no1")
3.9
>>> recorded_measurement("CCc1nc(N)nc(N)c1OCCc1cn(-c2ccc(C(=O)OC)cc2)nn1")
8.56
>>> recorded_measurement("CCc1nc(N)nc(N)c1OCCc1coc(-c2ccc(C(=O)O)cc2)n1")
1.56

----------
- TEST_TARGET: wild type (WT) pfDHFR (Plasmodium falciparum, UniProt P13922, N108S/R59C)
- Sequence (P13922 whole entry R59C/N108S): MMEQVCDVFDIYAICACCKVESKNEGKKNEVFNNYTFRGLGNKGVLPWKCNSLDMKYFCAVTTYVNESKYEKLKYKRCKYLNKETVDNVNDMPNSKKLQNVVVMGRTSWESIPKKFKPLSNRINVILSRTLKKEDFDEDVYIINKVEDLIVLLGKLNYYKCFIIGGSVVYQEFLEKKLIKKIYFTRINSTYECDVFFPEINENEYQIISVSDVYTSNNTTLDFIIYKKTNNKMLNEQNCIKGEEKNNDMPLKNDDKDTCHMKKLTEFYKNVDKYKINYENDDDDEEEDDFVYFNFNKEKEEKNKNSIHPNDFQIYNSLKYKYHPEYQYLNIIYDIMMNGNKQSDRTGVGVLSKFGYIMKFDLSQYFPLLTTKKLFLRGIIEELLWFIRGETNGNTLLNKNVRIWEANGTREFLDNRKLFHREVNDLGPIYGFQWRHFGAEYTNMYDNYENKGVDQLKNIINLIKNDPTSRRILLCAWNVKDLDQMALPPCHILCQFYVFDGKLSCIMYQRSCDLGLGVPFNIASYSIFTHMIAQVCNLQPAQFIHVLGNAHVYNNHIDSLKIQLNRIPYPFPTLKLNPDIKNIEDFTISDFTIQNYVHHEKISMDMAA
- PROTOCOL: Inhibition of wild type pfDHFR (Ki)
log10 of Ki values by entry
MEASURED_QUANTITY: log10 of Ki (log10 of the value in nM)

>>> recorded_measurement("CCc1nc(N)nc(N)c1OCc1csc(-c2ccc(OC)cc2)n1")
-0.34
>>> recorded_measurement("CCc1nc(N)nc(N)c1OCc1cc(-c2cccc([N+](=O)[O-])c2)no1")
0.12
>>> recorded_measurement("CCc1nc(N)nc(N)c1OCc1cn(-c2cccc(C(=O)OC)c2)nn1")
0.27
>>> recorded_measurement("CCc1nc(N)nc(N)c1OCCCc1cn(-c2ccc(C(=O)OC)cc2)nn1")
-0.82
>>> recorded_measurement("CCc1nc(N)nc(N)c1OCc1csc(-c2ccc(C)cc2)n1")
-0.09
>>> recorded_measurement("CCc1nc(N)nc(N)c1OCc1cc(-c2ccc(OC)cc2)no1")
0.06
>>> recorded_measurement("CCc1nc(N)nc(N)c1OCc1csc(-c2cccc(OCC(=O)OCc3ccccc3)c2)n1")
-0.12
>>> recorded_measurement("CCc1nc(N)nc(N)c1OCc1cc(-c2ccc(F)cc2)no1")
0.00
>>> recorded_measurement("CCc1nc(N)nc(N)c1-c1cn(CCCc2ccccc2)nn1")
0.45
>>> recorded_measurement("CCc1nc(N)nc(N)c1OCc1coc(-c2cccc(OCC(=O)O)c2)n1")
0.08
>>> recorded_measurement("CCc1nc(N)nc(N)c1OCc1coc(-c2cccc([N+](=O)[O-])c2)n1")
0.42
>>> recorded_measurement("CCc1nc(N)nc(N)c1OCc1cc(-c2ccccc2)no1")
-0.29
>>> recorded_measurement("CCc1nc(N)nc(N)c1OCc1csc(-c2ccc(C(=O)OC)cc2)n1")
-0.19
>>> recorded_measurement("CCc1nc(N)nc(N)c1OCc1coc(-c2ccc(Cl)cc2)n1")
0.06
>>> recorded_measurement("CCc1nc(N)nc(N)c1OCCCc1cc(-c2cccc(C(F)(F)F)c2)no1")
-0.41
>>> recorded_measurement("CCc1nc(N)nc(N)c1OCc1cn(-c2ccc(C(=O)O)cc2)nn1")
0.89
>>> recorded_measurement("CCc1nc(N)nc(N)c1OCc1cc(-c2ccc(C(=O)O)cc2)no1")
0.57
>>> recorded_measurement("CCc1nc(N)nc(N)c1OCCc1coc(-c2ccc(C(=O)O)cc2)n1")
-0.59
>>> recorded_measurement("CCc1nc(N)nc(N)c1OCc1csc(-c2cccc(C)c2)n1")
-0.47
